- Assay target: PTK2-phosphorylation at tyrosine 397 (pY397) (Homo sapiens, UniProt Q05397)
- Construct: endogenous in cells
- Sequence (Q05397 whole entry): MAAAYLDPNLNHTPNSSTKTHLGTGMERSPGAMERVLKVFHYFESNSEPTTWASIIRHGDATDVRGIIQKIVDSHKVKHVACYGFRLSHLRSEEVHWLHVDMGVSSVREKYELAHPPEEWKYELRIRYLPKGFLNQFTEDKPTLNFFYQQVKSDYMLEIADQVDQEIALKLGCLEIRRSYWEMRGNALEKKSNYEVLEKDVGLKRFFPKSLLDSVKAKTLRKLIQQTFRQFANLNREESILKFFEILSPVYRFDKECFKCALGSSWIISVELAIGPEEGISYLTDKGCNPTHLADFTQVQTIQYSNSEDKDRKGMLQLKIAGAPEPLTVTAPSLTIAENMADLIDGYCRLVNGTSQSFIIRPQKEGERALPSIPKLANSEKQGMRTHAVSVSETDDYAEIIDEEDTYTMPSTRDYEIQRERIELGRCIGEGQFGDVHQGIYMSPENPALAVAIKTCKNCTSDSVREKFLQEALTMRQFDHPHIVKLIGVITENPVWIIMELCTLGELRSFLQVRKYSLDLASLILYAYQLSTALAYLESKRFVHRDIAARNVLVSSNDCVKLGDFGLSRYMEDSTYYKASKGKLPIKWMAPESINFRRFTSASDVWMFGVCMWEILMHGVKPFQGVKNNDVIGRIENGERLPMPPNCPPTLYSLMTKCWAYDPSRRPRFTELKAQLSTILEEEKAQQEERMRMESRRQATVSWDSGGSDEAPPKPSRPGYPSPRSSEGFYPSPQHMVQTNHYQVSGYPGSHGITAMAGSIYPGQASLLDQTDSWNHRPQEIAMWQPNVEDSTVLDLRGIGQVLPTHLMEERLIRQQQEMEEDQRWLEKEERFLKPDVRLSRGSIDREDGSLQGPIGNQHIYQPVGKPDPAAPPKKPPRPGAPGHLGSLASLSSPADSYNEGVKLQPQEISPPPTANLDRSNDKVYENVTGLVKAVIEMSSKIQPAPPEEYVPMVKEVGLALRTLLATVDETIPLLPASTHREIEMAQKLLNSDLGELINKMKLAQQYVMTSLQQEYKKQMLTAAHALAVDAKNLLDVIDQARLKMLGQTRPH
- Method summary: Phospho-PTK2 (pY397) Assay in PC-3 cells
- Condition: PC-3 prostate carcinoma cells, 2 h incubation; read-out: PC3pPTK2 Y397 EC50
- Procedure: This cellular test is used to determine the influence of PTK2-inhibitors on the state of the PTK2-phosphorylation at tyrosine 397 (pY397). PC-3 cells (prostate carcinoma, ATCC CRL-1435) are grown in cell culture flasks (175 cm^2) with F12 Kaighn's Medium (Gibco, No.: 21127) with the addition of 10% foetal calf serum (Invitrogen, No.: 16000-044). The cultures are incubated in the incubator at 37° C. and 5% CO2 and run twice a week. […]
Readout kind: EC50 (nM)
Give the value, in units of nM, as a plain number.

| Smiles text | Assay target | EC50 [nM] |
| --- | --- | --- |
| COc1cc(CNC(C)C)ccc1Nc1ncc(C(F)(F)F)c(NCc2ccc(C)cc2N(C)S(C)(=O)=O)n1 | PTK2-phosphorylation at tyrosine 397 (pY397) (Homo sapiens, UniProt Q05397) | 1 |
| COc1cc(C(=O)NC2CCN(CC3CC3)CC2)ccc1Nc1ncc(C(F)(F)F)c(NCc2ccc(C)cc2N(C)S(C)(=O)=O)n1 | PTK2-phosphorylation at tyrosine 397 (pY397) (Homo sapiens, UniProt Q05397) | 0.29 |
| COc1cc(C(=O)N[C@H]2CCN(C)C2)c(F)cc1Nc1ncc(C(F)(F)F)c(NCc2ccc(C)cc2N(C)S(C)(=O)=O)n1 | PTK2-phosphorylation at tyrosine 397 (pY397) (Homo sapiens, UniProt Q05397) | 0.23 |
| CC(=O)Nc1ccc(Nc2ncc(C(F)(F)F)c(NCc3ccc(C)cc3N(C)S(C)(=O)=O)n2)cc1Cl | PTK2-phosphorylation at tyrosine 397 (pY397) (Homo sapiens, UniProt Q05397) | 2 |
| COc1ccc(CNc2nc(Nc3cc(F)c(C(=O)N[C@@H]4CCN(C)C4)cc3OC)ncc2C(F)(F)F)c(N(C)S(C)(=O)=O)c1 | PTK2-phosphorylation at tyrosine 397 (pY397) (Homo sapiens, UniProt Q05397) | 0.39 |

Which EC50 is listed for COc1ccc(CNc2nc(Nc3cc(F)c(C(=O)NC4CCN(C)CC4)cc3OC)ncc2C(F)(F)F)c(N(C)S(C)(=O)=O)c1 ? 0.37

Which EC50 is listed for COc1cc(C(=O)NC2CCN(C)CC2)c(C)cc1Nc1ncc(C(F)(F)F)c(NCc2ccc(C)cc2N(C)S(C)(=O)=O)n1 ? 2

Which EC50 is listed for COc1cc(C(=O)NC2CCN(C)CC2)c(F)cc1Nc1ncc(C(F)(F)F)c(NCc2ccc(Cl)cc2N(C)S(C)(=O)=O)n1 ? 2

* * *

- Assay target: PTK2-phosphorylation at tyrosine 397 (pY397) (Homo sapiens, UniProt Q05397)
- Construct: endogenous in cells
- Method summary: Phospho-PTK2 (pY397) Assay in PC-3 cells
- Condition: PC-3 prostate carcinoma cells, 2 h incubation; read-out: PC3pPTK2 Y397 EC50
Readout kind: pEC50
On this scale, pEC50 is minus log10 of a concentration expressed in M (mol/L).

A selection of reference data follows.
| Compound | pEC50 |
| --- | --- |
| COc1cc(C(N)=O)c(Br)cc1Nc1ncc(C(F)(F)F)c(NCc2ccc(C)cc2N(C)S(C)(=O)=O)n1 | 9.51 |
| COc1cc(C(=O)N(C)C2CCN(C)CC2)ccc1Nc1ncc(C(F)(F)F)c(NCc2ccc(C)cc2N(C)S(C)(=O)=O)n1 | 8.70 |
| CCN1CCC[C@H]1CNC(=O)c1ccc(Nc2ncc(C(F)(F)F)c(NCc3ccc(C)cc3N(C)S(C)(=O)=O)n2)c(OC)c1 | 9.36 |
| COc1cc(C(=O)NC2CCN(C)CC2)c(F)cc1Nc1ncc(C(F)(F)F)c(NCc2ccc(C)cc2N(C)S(C)(=O)=O)n1 | 9.40 |
| CCNCc1ccc(Nc2ncc(C(F)(F)F)c(NCc3ccc(C)cc3N(C)S(C)(=O)=O)n2)c(OC)c1 | 9.15 |

Consider the record given below.
API: value(readout=pEC50, system=PTK2-phosphorylation at tyrosine 397 (pY397) (Homo sapiens, UniProt Q05397)) for record COc1cc(C(=O)NC2CCN3CCCC3C2)ccc1Nc1ncc(C(F)(F)F)c(NCc2ccc(C)cc2N(C)S(C)(=O)=O)n1 (stereo not drawn) 9.29
